test system: NCI-H226; assay: NCI tumour cell line growth inhibition, 48 h
The source made the active and inactive calls. Rule as the data show it: active = GI50 up to about 1.1 µM and inactive = higher.
measurement_kind: GI50

Example entries and their recorded answers appear below.
{"columns": ["compound", "observed_value"],
 "data": [
  ["CCCCN(CCCC)C(=O)C(=O)C(C)C(=O)CC (stereo unspecified)", "> 100 µM (inactive)"],
  ["CSc1nc(Cl)c2c(n1)Sc1nc3ccccc3n1N=C2", "62.7 µM (inactive)"],
  ["CCOC(=O)c1nc2cc(C(F)(F)F)ccc2nc1Nc1ccc(OC)cc1", "> 100 µM (inactive)"],
  ["CCc1cccc(C)c1NC(C)=O", "> 100 µM (inactive)"],
  ["CC(C)(CC(=O)Nc1ccccc1)C(=O)O", "> 100 µM (inactive)"]
]}

# evaluate next
For the compound N#CC(C(=O)/C(=N/N)C(C#N)c1ccccc1)c1ccccc1 (stereo unspecified) , report GI50.
> 100 µM (inactive)

---

test system: NCI-H460; test: NCI tumour cell line growth inhibition, 48 h
Active and inactive are the calls of the source. Rule as the data show it: active = GI50 up to about 1.1 µM and inactive = higher.
measurement_kind: GI50

{"columns": ["molecule", "GI50"],
 "data": [
  ["Cc1ccc(Nc2c(C#N)[n+]([O-])c3cc(Cl)ccc3[n+]2[O-])cc1", "9.31 µM (inactive)"]
]}

# evaluate next
For the molecule CCOC(=O)c1c(N)sc2c1C(C(=O)OCC)CCC2 (stereo unspecified) , report GI50.
> 100 µM (inactive)

---

test system: SK-MEL-5; experiment: NCI tumour cell line growth inhibition, 48 h
The source made the active and inactive calls. No stated cut-off is given here; in the data, active = GI50 up to about 1.1 µM and inactive = higher.
measurement_kind: GI50

Example entries and their recorded answers appear below.
{"columns": ["compound", "observed_value"],
 "data": [
  ["CCCC#CCOC(=O)c1cc([N+](=O)[O-])cc([N+](=O)[O-])c1", "52 µM (inactive)"],
  ["O=C1Nc2c(ccc(Cl)c2I)C1=O", "15.7 µM (inactive)"],
  ["COc1ccc(N2C(=O)CC(c3c[nH]c4ncccc34)C2=O)cc1 (stereo unspecified)", "> 100 µM (inactive)"],
  ["CC(C)(C)Nc1noc(=O)n1C(C)(C)C", "> 100 µM (inactive)"],
  ["OCCC/N=C1N=C(Cl)/C(=C\\c2ccccc2)N\\1", "> 100 µM (inactive)"]
]}

For the compound O=c1c2nc[nH]c2n(-c2ccccc2)c(=S)n1-c1ccccc1 , report GI50.
> 100 µM (inactive)

---

# key: entry, value: GI50
system: A549; assay: NCI tumour cell line growth inhibition, 48 h
The source made the active and inactive calls. No stated cut-off is given here; in the data, active = GI50 up to about 1.1 µM and inactive = higher.

{"columns": ["molecule", "subject_of_test", "measurement_kind", "observed_value"],
 "data": [
  ["COc1ccc2c(-c3ccc(OCCN(C)C)cc3)c(Oc3ccc(Cl)cc3)c(=O)oc2c1", "A549", "GI50", "4.48 µM (inactive)"],
  ["O=C(c1ccc(Cl)cc1)N(C(=S)N1CCN(c2ccccn2)CC1)c1ccccc1", "A549", "GI50", "94.2 µM (inactive)"],
  ["O=C(c1nc2ccc(Cl)cc2nc1O)C(O)c1ccccc1 (configuration not stated)", "A549", "GI50", "35.2 µM (inactive)"]
]}

For the molecule N=C(N)NCCCCCCC(=O)NC(O)C(=O)NCCCCNCCCN (configuration not stated) , report GI50.
473 µM (inactive)

For the molecule N#C/C(=C1\OC(=N)C(c2ccc(Cl)cc2Cl)C1=O)c1ccc(Cl)cc1Cl (configuration not stated) , report GI50.
> 100 µM (inactive)

For the molecule O=C1c2ccccc2C(=O)C2C3c4ccccc4C(c4ccccc43)C12 (configuration not stated) , report GI50.
28.7 µM (inactive)

Source of measurements: ChEMBL document CHEMBL1201862
